# PT annotations
- testSystem: Thrombin and coagulation factor X (Homo sapiens) (UniProt P00734+P00742)
- Sequence (P00742 whole entry, looked up, other chains not shown): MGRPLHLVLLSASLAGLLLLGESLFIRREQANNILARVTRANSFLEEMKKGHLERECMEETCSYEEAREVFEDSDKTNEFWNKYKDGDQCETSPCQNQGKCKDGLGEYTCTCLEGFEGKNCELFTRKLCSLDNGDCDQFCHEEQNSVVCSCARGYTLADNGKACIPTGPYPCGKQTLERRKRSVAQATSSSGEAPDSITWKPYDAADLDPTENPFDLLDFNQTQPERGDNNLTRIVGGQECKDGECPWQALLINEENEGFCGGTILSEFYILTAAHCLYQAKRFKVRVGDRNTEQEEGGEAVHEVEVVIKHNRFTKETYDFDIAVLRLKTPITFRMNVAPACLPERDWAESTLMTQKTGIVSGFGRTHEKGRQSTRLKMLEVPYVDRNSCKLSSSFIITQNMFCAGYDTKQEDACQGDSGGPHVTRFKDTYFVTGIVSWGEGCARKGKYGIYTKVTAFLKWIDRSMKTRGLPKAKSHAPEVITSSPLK
- testProtocol: Anticoagulant potency against double prothrombin time
- Type: functional

# smilesString, testSystem, displayUnit, valueComparator, PT
records = [
    ("COc1ccc(C(=O)Nc2ccccc2NC(=O)OCC2CCN(c3ccncc3)CC2)cc1F", "Thrombin and coagulation factor X (Homo sapiens) (UniProt P00734+P00742)", "µM", "=", 1.1),
    ("Cc1ccc(C(=O)Nc2ccccc2NC(=O)OCC2CCN(c3ccncc3)CC2)cc1Cl", "Thrombin and coagulation factor X (Homo sapiens) (UniProt P00734+P00742)", "µM", "=", 22),
    ("Nc1cccc(C(=O)Nc2ccccc2NC(=O)OCC2CCN(c3ccncc3)CC2)c1", "Thrombin and coagulation factor X (Homo sapiens) (UniProt P00734+P00742)", "µM", "=", 8),
    ("O=C(Nc1ccccc1NC(=O)c1ccc(I)cc1)OCC1CCN(c2ccncc2)CC1", "Thrombin and coagulation factor X (Homo sapiens) (UniProt P00734+P00742)", "µM", "=", 6),
    ("O=C(Nc1ccccc1NC(=O)c1cccc(Cl)c1)OCC1CCN(c2ccncc2)CC1", "Thrombin and coagulation factor X (Homo sapiens) (UniProt P00734+P00742)", "µM", "=", 12),
    ("Cc1ccc(C(=O)Nc2ccccc2NC(=O)OCC2CCN(c3ccncc3)CC2)cc1", "Thrombin and coagulation factor X (Homo sapiens) (UniProt P00734+P00742)", "µM", "=", 8),
    ("O=C(Nc1ccccc1NC(=O)c1ccc(OC(F)F)cc1)OCC1CCN(c2ccncc2)CC1", "Thrombin and coagulation factor X (Homo sapiens) (UniProt P00734+P00742)", "µM", "=", 6),
    ("COc1ccc(C(=O)Nc2ccccc2NC(=O)C2CCN(c3ccncc3)CC2)cc1", "Thrombin and coagulation factor X (Homo sapiens) (UniProt P00734+P00742)", "µM", "=", 9.7),
    ("O=C(Nc1ccccc1NC(=O)c1ccc(Cl)cc1)OCC1CCN(c2ccncc2)CC1", "Thrombin and coagulation factor X (Homo sapiens) (UniProt P00734+P00742)", "µM", "=", 1.9),
    ("COc1ccc(C(=O)Nc2ccccc2NC(=O)c2ccc(C(C)(C)C)cc2)cc1", "Thrombin and coagulation factor X (Homo sapiens) (UniProt P00734+P00742)", "µM", ">", 50),
]

---

- testSystem: Coagulation factor X (Homo sapiens)
- testProtocol: Binding affinity as apparent association constant for human coagulation factor X

# compound, testSystem, displayUnit, K ass
data = [
    ("Cc1ccc(C(=O)Nc2ccccc2NC(=O)OCC2CCN(c3ccncc3)CC2)cc1F", "Coagulation factor X (Homo sapiens)", "L/mol", "5.8e+06"),
    ("N#Cc1ccc(C(=O)Nc2ccccc2NC(=O)OCC2CCN(c3ccncc3)CC2)cc1", "Coagulation factor X (Homo sapiens)", "L/mol", 600000),
    ("O=C(Nc1ccccc1NC(=O)c1ccc(OC(F)F)cc1)OCC1CCN(c2ccncc2)CC1", "Coagulation factor X (Homo sapiens)", "L/mol", "5e+06"),
    ("O=C(Nc1ccccc1NC(=O)c1cccc(O)c1)OCC1CCN(c2ccncc2)CC1", "Coagulation factor X (Homo sapiens)", "L/mol", "1e+06"),
    ("Cc1ccc(C(=O)Nc2ccccc2NC(=O)OCC2CCN(c3ccncc3)CC2)cc1", "Coagulation factor X (Homo sapiens)", "L/mol", "6.3e+06"),
    ("O=C(Nc1ccccc1NC(=O)c1ccc(Br)cc1)OCC1CCN(c2ccncc2)CC1", "Coagulation factor X (Homo sapiens)", "L/mol", "3.8e+07"),
    ("Nc1cccc(C(=O)Nc2ccccc2NC(=O)OCC2CCN(c3ccncc3)CC2)c1", "Coagulation factor X (Homo sapiens)", "L/mol", "5.1e+06"),
    ("O=C(Nc1ccccc1NC(=O)C1=CCCC1)OCC1CCN(c2ccncc2)CC1", "Coagulation factor X (Homo sapiens)", "L/mol", 700000),
    ("COc1cccc(C(=O)Nc2ccccc2NC(=O)OCC2CCN(c3ccncc3)CC2)c1", "Coagulation factor X (Homo sapiens)", "L/mol", "3.3e+06"),
    ("O=C(Nc1ccccc1NC(=O)c1ccc2c(c1)CCO2)OCC1CCN(c2ccncc2)CC1", "Coagulation factor X (Homo sapiens)", "L/mol", 600000),
    ("O=C(Nc1ccccc1NC(=O)c1ccc(Cl)s1)OCC1CCN(c2ccncc2)CC1", "Coagulation factor X (Homo sapiens)", "L/mol", "3.3e+07"),
    ("O=C(Nc1ccccc1NC(=O)c1ccc2cc[nH]c2c1)OCC1CCN(c2ccncc2)CC1", "Coagulation factor X (Homo sapiens)", "L/mol", "5.4e+07"),
    ("O=C(Nc1ccccc1NC(=O)C1=CCCCC1)OCC1CCN(c2ccncc2)CC1", "Coagulation factor X (Homo sapiens)", "L/mol", 900000),
    ("COc1ccc(C(=O)Nc2ccccc2NC(=O)OCC2CCN(c3ccncc3)CC2)cc1", "Coagulation factor X (Homo sapiens)", "L/mol", "1.9e+07"),
    ("COc1ccc(C(=O)Nc2ccccc2NC(=O)OCC2CCN(c3ccncc3)CC2)cc1F", "Coagulation factor X (Homo sapiens)", "L/mol", 46),
    ("O=C(Nc1ccccc1NC(=O)c1ccccc1Cl)OCC1CCN(c2ccncc2)CC1", "Coagulation factor X (Homo sapiens)", "L/mol", 300000),
    ("O=C(Nc1ccccc1NC(=O)c1ccc(Cl)cc1)OCC1CCN(c2ccncc2)CC1", "Coagulation factor X (Homo sapiens)", "L/mol", "3.5e+07"),
    ("O=C(Nc1ccccc1NC(=O)c1ccccc1)OCC1CCN(c2ccncc2)CC1", "Coagulation factor X (Homo sapiens)", "L/mol", "1.6e+06"),
    ("O=C(Nc1ccccc1NC(=O)c1ccc(I)cc1)OCC1CCN(c2ccncc2)CC1", "Coagulation factor X (Homo sapiens)", "L/mol", "1.4e+07"),
    ("Cc1cccc(C(=O)Nc2ccccc2NC(=O)OCC2CCN(c3ccncc3)CC2)c1", "Coagulation factor X (Homo sapiens)", "L/mol", "5.9e+06"),
    ("O=C(Nc1ccccc1NC(=O)c1cccc(Cl)c1Cl)OCC1CCN(c2ccncc2)CC1", "Coagulation factor X (Homo sapiens)", "L/mol", "1.9e+07"),
    ("O=C(Nc1ccccc1NC(=O)c1ccc(F)cc1)OCC1CCN(c2ccncc2)CC1", "Coagulation factor X (Homo sapiens)", "L/mol", "4.6e+06"),
    ("CC(C)(C)c1ccc(C(=O)Nc2ccccc2NC(=O)c2cccc(C(=N)N)c2)cc1", "Coagulation factor X (Homo sapiens)", "L/mol", "2.42e+08"),
    ("O=C(Nc1ccccc1NC(=O)c1cccc(Cl)c1)OCC1CCN(c2ccncc2)CC1", "Coagulation factor X (Homo sapiens)", "L/mol", "4.1e+06"),
    ("COc1ccc(C(=O)Nc2ccccc2NC(=O)c2ccc(C(C)(C)C)cc2)cc1", "Coagulation factor X (Homo sapiens)", "L/mol", "7e+06"),
    ("O=C(Nc1ccccc1NC(=O)c1cccc(F)c1)OCC1CCN(c2ccncc2)CC1", "Coagulation factor X (Homo sapiens)", "L/mol", "2.5e+06"),
    ("COc1ccc(C(=O)Nc2ccccc2NC(=O)C2CCN(c3ccncc3)CC2)cc1", "Coagulation factor X (Homo sapiens)", "L/mol", "2e+06"),
    ("COc1ccccc1C(=O)Nc1ccccc1NC(=O)OCC1CCN(c2ccncc2)CC1", "Coagulation factor X (Homo sapiens)", "L/mol", 20000),
    ("Cc1ccc(C(=O)Nc2ccccc2NC(=O)OCC2CCN(c3ccncc3)CC2)cc1Cl", "Coagulation factor X (Homo sapiens)", "L/mol", "2.3e+06"),
    ("O=C(Nc1ccccc1NC(=O)C1C=CCCC1)OCC1CCN(c2ccncc2)CC1 (configuration not stated)", "Coagulation factor X (Homo sapiens)", "L/mol", 200000),
    ("O=C(Nc1ccccc1NC(=O)C1CCCCC1)OCC1CCN(c2ccncc2)CC1", "Coagulation factor X (Homo sapiens)", "L/mol", 40000),
    ("O=C(Nc1ccccc1NC(=O)c1ccc(Cl)o1)OCC1CCN(c2ccncc2)CC1", "Coagulation factor X (Homo sapiens)", "L/mol", 700000),
]
